B1: TPR t1 (parent)
chain: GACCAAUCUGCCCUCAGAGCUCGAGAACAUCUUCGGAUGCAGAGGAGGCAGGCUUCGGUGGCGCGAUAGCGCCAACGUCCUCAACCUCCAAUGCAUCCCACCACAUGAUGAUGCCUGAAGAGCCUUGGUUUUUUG

Variants of: B1
assay: polymerase ribozyme fitness, log enrichment relative to wild type (log ratio); higher = more active; in vitro selection for triplet polymerase activity
polymerase ribozyme fitness (log ratio) for assorted variants

| mutation-id | polymerase ribozyme fitness (log ratio) |
| --- | --- |
| C70U C102G A121G | -5.14 |
| C15G C40G C56A | -3.88 |
| A2C A46C U55A C64G A84U | -7.2 |
| C94A U112G C124G | 0.054 |
| C114U G122A | -2.83 |
| C8A G51C C73U C94U U130G | -3.59 |
| C12G C86G C89G C104U | -1.35 |
| G60A A90U | -1.06 |
| G61U U81G C86U G120U U133A | -4.06 |
| G48A U67C | -3.66 |
| C13U C56G G58C | -0.174 |
| C11U A26G G45A G58A | -5.7 |
| G69U C72G U78G U129C | -1.86 |
| C8U A26G C49U G57C U112A | -0.963 |
| U9G C20A U54C C76U G128C | -5.03 |
| G48A G61U C64U A84U | -3.63 |
| C72A G135U | -0.828 |
| U33G U54G G58C A74G G120C | -5.75 |
| U32A U59C | -3.8 |
